Tested on: Es-2
Experiment: Primary qHTS to identify gynecologic anti-cancer compounds using libraries of approved drugs and bioactive compounds (AID 1345084); note: nearly all actives have a fitted effect of over 55% in size
Conditions: Gynecologic cancer cell panel viability, ATPlite luminescence, 48 h; series mostly up to 57.5 µM
Records with an inconclusive call do not appear. Activity calls are given as the source filed them. Calls come from the whole dose curve; as a rule, active = well fitted cell-killing curve with a large enough effect; inconclusive = small, poorly fitted or top-dose-only effect, or effect the other way; inactive = flat fitted curve, though single readings scatter.
Can you answer with just one of these options? active, inactive

molecule="CC1(C)CC2C=C(C(=O)O)C3COC(=O)C(O)(CO)C23C1 (configuration not stated)" classification=inactive
molecule=CC(=O)O[C@H]1C[C@@]2(C)[C@@H](CC[C@H]3[C@@]4(C)C=CC(=O)[C@@H](C)[C@@H]4[C@H](O)C(=O)[C@@]32C)/C1=C(/CCC=C(C)C)C(=O)O classification=inactive
molecule=C=CC(=O)Nc1cc(Nc2nccc(-c3c[nH]c4ccccc34)n2)c(OC)cc1N(C)CCN(C)C classification=active

(Q) Hello, I am checking results. What call was entered for COc1cc(OC)cc(C(=O)Nc2ccc(Cl)c(-c3nc4ccc(N(C)C)cc4[nH]3)c2)c1 ?
(A) inactive

(Q) Another molecule: CS(=O)(=O)c1ccc(-c2nnc(/C=C/c3nnc(-c4ccc(C#N)cc4)o3)n2-c2ccccc2Cl)nc1
(A) inactive

(Q) Another molecule: CC(=O)C=C=C1C(C)(C)CC(O[C@@H]2O[C@H](CO)[C@@H](O)[C@H](O)[C@H]2O)CC1(C)O (some centres not stated)
(A) inactive

(Q) Another molecule: CC(C)c1cc2c(c(O)c1O)[C@@]13CCCC(C)(C)[C@@H]1[C@H](OC3=O)C2=O
(A) inactive

(Q) Another molecule: C=C(CO[C@@H]1O[C@H](CO[C@@H]2OC[C@](O)(CO)[C@H]2O)[C@@H](O)[C@H](O)[C@H]1O)C1Cc2cc(C(C)=O)ccc2O1 (some centres not stated)
(A) inactive

(Q) Another molecule: CC(=O)c1c(O)cc(O[C@@H]2O[C@H](CO)[C@@H](O)[C@H](O)[C@H]2O)cc1O
(A) inactive

(Q) Another molecule: O=C(OC1C=C(CO)C2C(OC3OC(CO)C(O)C(O)C3O)OC=CC12)c1ccc(O)cc1 (configuration not stated)
(A) inactive

----------
Target: Calcium and integrin-binding protein 1 (Homo sapiens)
Test: Primary qHTS for Identification of Calcium Integrin Binding Protein 1 (CIB1) Competitor (AID 1508620);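 note: GST tagged CIB1 binding a fluorescein labelled alphaIIb integrin peptide tracer; top concentration of the series differs between compounds; % is set by controls: 0 for no effect and ±100 for the full control effect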
Conditions: CIB1-GST / FITC-alphaIIb peptide fluorescence polarization; series mostly up to 114 µM
Excerpt: Assay Provider: Ulhas P. Naik, PhD Sidney Kimmel Medical College Thomas Jefferson University, Philadelphia, PA Primary function of platelets is to maintain hemostasis. At the site of vascular injury, platelets adhere to adhesive proteins such as collagen and von Willebrand factor. […] PROTOCOL TABLES SEQUENCE No. (1, 2, 3, etc.); […] […] 7; ViewLux Fluorescent Polization Read: excitation = 480(20) / emission = 540(25) S and P; FITC Dichroic mirror.
Inconclusive results are not listed. Calls of active or inactive are those of the source. The call rests on the fitted dose curve; in most records, active means well fitted inhibition curve with a large enough effect; inconclusive means small, poorly fitted or top-dose-only effect; inactive means flat fitted curve, though single readings scatter.
assay-readout: activity change, negative = inhibition

molecule="CC1(C)CC[C@]2(C(=O)O)CC[C@]3(C)C(=CCC4[C@@]5(C)C[C@@H](O)[C@H](O)C(C)(C)C5CC[C@]43C)C2C1 (some centres undefined)" recorded_result=inactive
molecule="C[C@@H]1O[C@@H](OC[C@H]2O[C@@H](OC(CCCCc3ccc(O)cc3)CCc3ccc(O)cc3)[C@H](O)[C@@H](O)[C@@H]2O)[C@H](O)[C@H](O)[C@H]1O (some centres undefined)" recorded_result=inactive
molecule=COc1cc(OC)c(/C=C/S(=O)(=O)Cc2ccc(OC)c(NCC(=O)O)c2)c(OC)c1 recorded_result=inactive
molecule="CC(C)=CCC(O)/C(C)=C/CO[C@@H]1O[C@H](CO)[C@@H](O)[C@H](O)[C@H]1O (some centres undefined)" recorded_result=inactive

----------
Test system: HeLa
Experiment: Primary qHTS to identify gynecologic anti-cancer compounds using libraries of approved drugs and bioactive compounds (AID 1345084); note: nearly all actives have a fitted effect of over 55% in size; for activity change, negative = cytotoxicity: % is set by controls: 0 for no effect and ±100 for the full control effect
Conditions: Gynecologic cancer cell panel viability, ATPlite luminescence, 48 h; series mostly up to 57.5 µM
Description: National Center for Advancing Translational Sciences [NCATS] Assay Overview: Chemotherapeutic drug responses vary from cancer to cancer and from patient to patient. […] ATPlite is a luminescence based assay reliant on the conversion of a luciferase substrate to light in the presence of ATP. As a cytotoxic compound will suppress growth and decrease the number of cells, the concentration of ATP will decrease, and less light signal will be detected in the well. […]
Inconclusive results are not listed. Active and inactive are the calls of the source. Calls follow the shape of the dose curve; as a rule, active = well fitted cell-killing curve with a large enough effect; inconclusive = small, poorly fitted or top-dose-only effect, or effect the other way; inactive = flat fitted curve, though single readings scatter.
assay-readout: activity change, negative = cytotoxicity

molecule="C[C@@H]1O[C@@H](O[C@H]2[C@H](O[C@H]3CC[C@@]4(C)C(CC[C@]5(C)C4CC=C4[C@@H]6CC(C)(C)CC[C@]6(C(=O)O[C@@H]6OC[C@H](O)[C@H](O)[C@H]6O[C@@H]6O[C@@H](C)[C@H](O[C@@H]7O[C@H](CO)[C@@H](O)[C@H](O)[C@H]7O)[C@H](O)[C@H]6O)[C@H](O)C[C@]45C)C3(C)C)O[C@H](CO)[C@@H](O[C@@H]3OC[C@@H](O)[C@H](O)[C@H]3O)[C@@H]2O)[C@H](O)[C@H](O)[C@H]1O (stereo partly drawn)" study_target=HeLa recorded_result="-17.4% [at 6.55 µM] (inactive)"
molecule="CC1OC(OC2C(OC3C(O[C@H]4CC[C@@]5(C)C(CC[C@]6(C)C5C(=O)C=C5C7CC(C)(C)CC(O)[C@]7(C)CC[C@]56C)C4(C)C)OC(C(=O)O)C(O)C3O)OCC(O)C2O)C(O)C(O)C1O (stereo partly drawn)" study_target=HeLa recorded_result="6.46% [at 11.6 µM] (inactive)"
molecule="CC12CCC(=O)C=C1C(O)CC1C2C(O)CC2(C)C1CC[C@]2(O)C(=O)CO (stereo partly drawn)" study_target=HeLa recorded_result="6.62% [at 11.6 µM] (inactive)"
molecule="C=CC1C(OC2OC(CO)C(O)C(O)C2O)OC=C(C(=O)OC)C1CC(=O)OCC1C(C)C(O)CC1C(CO)COC(=O)CC1C(C(=O)O)=COC(OC2OC(CO)C(O)C(O)C2O)/C1=C\\C (stereo not drawn)" study_target=HeLa recorded_result="2.07% [at 11.6 µM] (inactive)"
molecule="COC1CC(O[C@H]2CC[C@@]3(C)C(CCC4C3[C@H](OC(C)=O)[C@@H](OC(=O)/C=C/c3ccccc3)[C@]3(C)C(C(C)=O)CC[C@]43O)C2)OC(C)C1OC1CC(OC)C(OC2CC(OC)C(OC3OC(C)C(OC4OC(CO)C(O)C(O)C4O)C(OC)C3O)C(C)O2)C(C)O1 (stereo partly drawn)" study_target=HeLa recorded_result="-3.04% [at 6.55 µM] (inactive)"

# map each molecule to its activity change, negative = cytotoxicity
1. C[C@@H]1O[C@@H](O[C@H]2[C@H](O)[C@@H](O[C@@H]3O[C@H](CO)[C@@H](O)[C@H](O[C@@H]4O[C@H](CO)[C@@H](O)[C@H](O)[C@H]4O)[C@H]3O)[C@H](O[C@H]3CC[C@@]4(C)C(=CC[C@@H]5C4CC[C@@]4(C)C5C[C@@H]5OC6(CC[C@@](C)(CO[C@@H]7O[C@H](CO)[C@@H](O)[C@H](O)[C@H]7O)O6)[C@@H](C)[C@@H]54)C3)O[C@@H]2CO)[C@H](O)[C@H](O)[C@H]1O (stereo partly drawn)
2. CC(=O)O[C@H]1[C@H](O[C@H]2[C@@H]3C=CO[C@@H](O[C@@H]4O[C@H](CO)[C@@H](O)[C@H](O)[C@H]4O)[C@@H]3[C@@]3(CO)O[C@@H]23)O[C@@H](C)[C@H](OC(=O)/C=C/c2ccccc2)[C@H]1OC(=O)/C=C/c1ccccc1
3. C[C@@H]1O[C@@H](O[C@@H]2[C@@H](O)[C@H](O[C@H]3CC[C@@]4(C)C(CC[C@]5(C)C4CC=C4[C@@H]6CC(C)(C)CC[C@]6(C(=O)O[C@@H]6O[C@H](CO)[C@@H](O)[C@H](O)[C@H]6O)CC[C@]45C)C3(C)C)O[C@H](C(=O)O)[C@H]2O)[C@H](O)[C@H](O)[C@H]1O (stereo partly drawn)

(A)
["-3.62% [at 6.55 µM] (inactive)", "-1.93% [at 11.6 µM] (inactive)", "2.44% [at 11.6 µM] (inactive)"]

----------
System: HEK293
Assay: Cytotoxic Profiling of Annotated Libraries Using Quantitative High-Throughput Screening (AID 1296008); note: nearly all actives have a fitted effect of over 60% in size
Conditions: Five cell lines viability, CellTiter-Glo ATP luminescence, 48-72 h
Records with an inconclusive call do not appear. The source made the active and inactive calls. The call rests on the fitted dose curve; in most records, active means well fitted inhibition curve with a large enough effect; inconclusive means small, poorly fitted or top-dose-only effect; inactive means flat fitted curve, though single readings scatter.
Can you answer with just one of these options? y (active), n (inactive)

compound="CN(C)c1ccc2c(c1)OC(N)=C(C#N)C2c1cccc(C(F)(F)F)c1 (centres undefined)" classification=y

(Q) Hello, I am checking results. What call was entered for O=C(Nc1ccc(S(=O)(=O)C(F)(F)F)cc1)C1=CCN(c2ncccc2C(F)(F)F)CC1 ?
(A) y

(Q) Another compound: COc1ccc(CN2C(=O)C(=O)c3cc(S(=O)(=O)N4CCC[C@H]4COc4cccnc4)ccc32)cc1
(A) n

(Q) Another compound: COc1cc2c(cc1OC)-c1[nH]nc(Nc3cccc(F)c3)c1C2
(A) y

(Q) Another compound: COc1ccc2nc(S(=O)(=O)Cc3ncc(C)c(OC)c3C)[nH]c2c1
(A) y

(Q) Another compound: CC1=C(C(=O)O)/C(=C\CO[C@@H]2O[C@H](CO)[C@@H](O)[C@H](O)[C@H]2O)C(OC(=O)/C=C\c2ccc(O)cc2)C1 (some centres undefined)
(A) n

(Q) Another compound: CN1c2ccccc2C(=O)N2CCC3c4ccccc4NC3C21 (centres undefined)
(A) y

(Q) Another compound: C=C(C)C(=O)OC1C(OC(C)=O)/C(C=O)=C\CC/C(CO)=C/C2OC(=O)C(=C)C21 (centres undefined)
(A) y

(Q) Another compound: C=C[C@@]12COC(=O)C(=C)C1[C@@H](O)[C@H](C(=C)C(=O)OC)[C@@H](OC(=O)C(=C)CO)C2 (some centres undefined)
(A) y

Hello, the source for this data is PubChem BioAssay (NCATS), in case you need it.
